- System: CCRIS mutagenicity, Ames/micronucleus/aberration tests
- assay.procedure: CCRIS mutagenicity studies
- details: Test System: AMES SALMONELLA TYPHIMURIUM; Strain/Indicator: TA1538; Metabolic Activation: NONE; Method: STANDARD PLATE
- Source text: The CCRIS database contains chemical records with carcinogenicity, mutagenicity, tumor promotion, and tumor inhibition test results. It was developed by the National Cancer Institute (NCI). Data are derived from studies cited in primary journals, current awareness tools, NCI reports, and other sources. Test results have been reviewed by experts in carcinogenesis and mutagenesis. CCRIS provides historical information from the years 1985 - 2011. It is no longer updated. […]
The source made the active and inactive calls. How the calls were made is not given here.
measurement.type: mutagenic call

Consider the worked cases shown below.
Look at this compound and give its reported mutagenic call. Nc1ccc(N=Nc2ccc(-c3ccc(N=Nc4c(S(=O)(=O)O)cc5c(c4N)C(=O)/C(=N/Nc4ccccc4)C(S(=O)(=O)O)=C5)cc3)cc2)c(N)c1
inactive; negative

How about this compound: CC[n+]1c(-c2ccccc2)c2cc(N)ccc2c2ccc(N)cc21
inactive; negative

Please do the same for CCOc1cc(N=Nc2ccc(N(CC)CC)cc2)ccc1N=Nc1c(S(=O)(=O)O)cc2ccc(N)cc2c1O as well.
inactive; negative

Now the compound NCC(=O)O
inactive; negative

Try this compound too: Cc1cc(O)c2c(O)c3c(O)cccc3cc2c1
inactive; negative

// next entry
For CCCO , what is its reported mutagenic call?
inactive; negative

----------
- System: CCRIS mutagenicity, Ames/micronucleus/aberration tests
- assay.procedure: CCRIS mutagenicity studies
- details: Test System: CHINESE HAMSTER V-79; Strain/Indicator: V-79/8-AZAGUANINE; Metabolic Activation: NONE
The source made the active and inactive calls. How the calls were made is not given here.
One label from this list, please: True (active), False (inactive)

# lookup: test call for CCc1cn([C@H]2C[C@H](O)[C@@H](CO)O2)c(=O)[nH]c1=O
False

Now give it for COc1cccc2c1C(=O)c1c(O)c3c(c(O)c1C2=O)CC(O)(C(=O)CO)CC3OC1CC(N2CCOCC2C#N)C(O)C(C)O1 (centres undefined) too.
True

// query: O=c1ccn([C@H]2C[C@H](O)[C@@H](CO)O2)c(=O)[nH]1
False

Quick one: COc1cccc2c1C(=O)c1c(O)c3c(c(O)c1C2=O)CC(O)(C(C)=O)CC3OC1CC(N2CCOCC2C#N)C(O)C(C)O1 (centres undefined)
True

----------
- Tested on: CCRIS mutagenicity, Ames/micronucleus/aberration tests
- assay.procedure: CCRIS mutagenicity studies
- details: Test System: AMES SALMONELLA TYPHIMURIUM; Strain/Indicator: TA97; Metabolic Activation: NONE; Method: PREINCUBATION
- Text: The CCRIS database contains chemical records with carcinogenicity, mutagenicity, tumor promotion, and tumor inhibition test results. It was developed by the National Cancer Institute (NCI). Data are derived from studies cited in primary journals, current awareness tools, NCI reports, and other sources. Test results have been reviewed by experts in carcinogenesis and mutagenesis. CCRIS provides historical information from the years 1985 - 2011. It is no longer updated. […]
The source made the active and inactive calls. No rule for the calls is given here.
I would appreciate it if you answered using one of these outcomes: active, inactive

Field: outcome | Entry: COC(=O)c1ccc(C=O)cc1
inactive

Input S=[Se]
active

Also check NCC(=O)O
inactive

Continue with CC1OC1C (configuration not stated)
inactive

Moving on to the next compound: CCCCN(CC)CC
inactive

And ClCCCl ?
inactive

And what about the compound [O]=[Cr](=[O])([OH])[O][Cr](=[O])(=[O])[OH] ?
active

Next entry: CCCCC(CC)COCC1CO1 (configuration not stated)
inactive

What about Cc1c(C)c2c(N)c3ccccc3nc2c2ccccc12 ?
active

Moving on to the next compound: Clc1cccc2ccccc12
inactive

Query CCCCCCCCCCC1CO1 (configuration not stated) next
inactive

Moving on to Cc1[nH]ccc2c1[nH]c1cc(=O)ccc12
active

Repeat for the following compound: CCCCOC(=O)CCC
inactive

Param item: Cc1cc(-c2ccc(N)c(C)c2)ccc1N
inactive

Now consider O=c1ccn([C@H]2C[C@H](O)[C@@H](CO)O2)c(=O)[nH]1 and answer again.
inactive

// query: CCCSC(=O)Cl
inactive

Item: Cc1ncc[nH]1
inactive

For Cc1ccccc1C#N then?
inactive

// query: O=[N+]([O-])c1ccccc1Nc1ccccc1
inactive

Now try C=CCN=C=S .
inactive

How about this compound: Nc1cc(Cl)c([N+](=O)[O-])cc1O
active

Next compound up: Nc1cccc(N)c1
inactive

Repeat for the following compound: CCN(CC)N=O
inactive

Can you check O=S(O)O next?
inactive

Same question, CCC(O)CN (configuration not stated) this time
inactive

Cool, now C=C1C[C@@]23CC[C@H]4[C@@](C)(CCC[C@@]4(C)C(=O)O)[C@@H]2CC[C@]1(O)C3
inactive

Repeat with Cc1c(C)c2c(c(C)c1OC(=O)CCC(=O)O)CC[C@@](C)(CCC[C@H](C)CCC[C@H](C)CCCC(C)C)O2
inactive

Further, for O=C1O[C@H]([C@H](O)CO)C(O)=C1O ?
inactive

Quick one: CCCCC(CC)COC(=O)c1ccc(C(=O)OCC(CC)CCCC)c(C(=O)OCC(CC)CCCC)c1 (configuration not stated)
inactive

And the next one, O=c1c2[nH]c3ccccc3c2nnn1/N=C/c1ccc(O)cc1 ?
active

Further, for N#CC(O)c1ccccc1 (configuration not stated) ?
inactive

// next record O=O
inactive
